- Test system: HepG2
- protocol-summary: Cytotoxicity against human HepG2 cells after 48 hrs by neutral red assay
- Type: cell-based
- study-conditions: HepG2, 48 h
assay-readout: pIC50
Answers are plain numbers, as −log10 of the molar value.

Cc1cc(NCCCCCCNc2ccnc3cc(Cl)ccc23)nc(N2CCN(C)CC2)n1 | 5.20
COc1cccc2c1C(=O)c1c(O)c3c(c(O)c1C2=O)C[C@@](O)(C(=O)CO)C[C@@H]3O[C@H]1C[C@H](N)[C@H](O)[C@H](C)O1 | 6.00
Cc1cc(NCCCCCCNc2ccnc3cc(Cl)ccc23)nc(N2CCCCC2)n1 | 5.19
Cc1cc(NCCCCNc2ccnc3cc(Cl)ccc23)nc(N2CCN(C)CC2)n1 | 4.53

### Prompt Need pIC50, item Cc1cc(Cl)nc(NCCNc2ccnc3cc(Cl)ccc23)n1
### Response 4.37

====

Would you kindly list selectivity ratio for each of these molecules?
- protocol-summary: Selectivity index, ratio of IC50 for african green monkey Vero cells to IC50 for chloroquine-sensitive Plasmodium falciparum D6
- Format: toxicity, cell-based
- study-conditions: read-out: Ratio IC50

As a guide, the following entries are already answered.
Cc1cc(NCCCCCCNc2ccnc3cc(Cl)ccc23)nc(N2CCCCC2)n1 | 146
Cc1cc(NCCCCCCNc2ccnc3cc(Cl)ccc23)nc(Cl)n1 | 74.3
CCN1CCN(c2nc(C)cc(NCCCNc3ccnc4cc(Cl)ccc34)n2)CC1 | > 10000

Would you mind giving selectivity ratio for every molecule in the list below?
1. Cc1cc(NCCCNc2ccnc3cc(Cl)ccc23)nc(N2CCOCC2)n1
2. Cc1cc(Cl)nc(NCCCCCCNc2ccnc3cc(Cl)ccc23)n1
3. CCc1nc(N)nc(N)c1-c1ccc(Cl)cc1
4. Cc1cc(NCCCCCCNc2ccnc3cc(Cl)ccc23)nc(N2CCOCC2)n1

### Response
> 3000
353
1820
503

Would you mind giving selectivity ratio for every molecule in the list below?
1. CCN1CCN(c2nc(C)cc(NCCCCNc3ccnc4cc(Cl)ccc34)n2)CC1
2. Cc1cc(NCCCNc2ccnc3cc(Cl)ccc23)nc(N2CCCCC2)n1
3. Cc1cc(NCCNc2ccnc3cc(Cl)ccc23)nc(N2CCOCC2)n1

### Response
1620
> 3000
> 3000

Would you mind giving selectivity ratio for every molecule in the list below?
1. Cc1cc(NCCCCNc2ccnc3cc(Cl)ccc23)nc(N2CCN(C)CC2)n1
2. Cc1cc(NCCCNc2ccnc3cc(Cl)ccc23)nc(Cl)n1
3. Cc1cc(NCCNc2ccnc3cc(Cl)ccc23)nc(Cl)n1
4. Cc1cc(Cl)nc(NCCNc2ccnc3cc(Cl)ccc23)n1
5. Cc1cc(NCCCNc2ccnc3cc(Cl)ccc23)nc(N2CCN(C)CC2)n1

### Response
["> 3000", "> 184", "> 370", 205, "> 8570"]

Would you mind giving selectivity ratio for every molecule in the list below?
1. Cc1cc(NCCCCNc2ccnc3cc(Cl)ccc23)nc(N2CCCCC2)n1
2. Cc1cc(NCCCCNc2ccnc3cc(Cl)ccc23)nc(Cl)n1
3. Cc1cc(Cl)nc(NCCCCNc2ccnc3cc(Cl)ccc23)n1
4. Cc1cc(NCCNc2ccnc3cc(Cl)ccc23)nc(N2CCN(C)CC2)n1

### Response
> 3000
> 500
> 353
> 12000

Would you mind giving selectivity ratio for every molecule in the list below?
1. Cc1cc(Cl)nc(NCCCNc2ccnc3cc(Cl)ccc23)n1
2. Cc1cc(NCCCCCCNc2ccnc3cc(Cl)ccc23)nc(N2CCN(C)CC2)n1

### Response
["> 250", 1480]

====

- Test system: Plasmodium falciparum
- protocol-summary: Antiplasmodial activity against chloroquine-resistant Plasmodium falciparum W2 infected in red blood cells after 72 hrs by parasitic LDH assay
- Format: functional, organism-based
- study-conditions: W2, 72 h
assay-readout: pIC50
Give bare numbers, as −log10 of the molar value.

As a guide, the following entries are already answered.
Cc1cc(NCCCCNc2ccnc3cc(Cl)ccc23)nc(Cl)n1 | 6.17
Cc1cc(NCCCCCCNc2ccnc3cc(Cl)ccc23)nc(N2CCCCC2)n1 | 7.00

Would you mind giving pIC50 for every compound in the list below?
1. CCN1CCN(c2nc(C)cc(NCCCCNc3ccnc4cc(Cl)ccc34)n2)CC1
2. Cc1cc(NCCCCCCNc2ccnc3cc(Cl)ccc23)nc(N2CCOCC2)n1
3. Cc1cc(NCCCCCCNc2ccnc3cc(Cl)ccc23)nc(Cl)n1
4. Cc1cc(NCCCNc2ccnc3cc(Cl)ccc23)nc(N2CCOCC2)n1
5. Cc1cc(NCCNc2ccnc3cc(Cl)ccc23)nc(N2CCN(C)CC2)n1
6. Cc1cc(Cl)nc(NCCCNc2ccnc3cc(Cl)ccc23)n1
7. Cc1cc(NCCNc2ccnc3cc(Cl)ccc23)nc(Cl)n1

### Response
[7.70, 6.85, 6.27, 7.30, 7.52, 5.93, 6.30]

====

- Tested on: HepG2
- protocol-summary: Cytotoxicity against human HepG2 cells up to 60 uM after 48 hrs by neutral red assay
- Format: cell-based
- study-conditions: hepg2, 48 h
assay-readout: Activity

As a guide, the following entries are already answered.
Cc1cc(NCCNc2ccnc3cc(Cl)ccc23)nc(Cl)n1 | Non-toxic
CCN1CCN(c2nc(C)cc(NCCCNc3ccnc4cc(Cl)ccc34)n2)CC1 | Non-toxic
Cc1cc(NCCCCNc2ccnc3cc(Cl)ccc23)nc(Cl)n1 | Non-toxic
Cc1cc(NCCCNc2ccnc3cc(Cl)ccc23)nc(N2CCCCC2)n1 | Non-toxic
Cc1cc(Cl)nc(NCCCNc2ccnc3cc(Cl)ccc23)n1 | Non-toxic
Cc1cc(NCCNc2ccnc3cc(Cl)ccc23)nc(N2CCOCC2)n1 | Non-toxic
Cc1cc(NCCCCNc2ccnc3cc(Cl)ccc23)nc(N2CCCCC2)n1 | Non-toxic
Cc1cc(NCCNc2ccnc3cc(Cl)ccc23)nc(N2CCN(C)CC2)n1 | Non-toxic

Would you mind giving Activity for every compound in the list below?
1. CCN(CC)CCCC(C)Nc1ccnc2cc(Cl)ccc12 (stereo unspecified)
2. C[C@@H]1CC[C@H]2[C@@H](C)C(=O)O[C@@H]3O[C@@]4(C)CC[C@@H]1[C@]32OO4
3. Cc1cc(NCCCNc2ccnc3cc(Cl)ccc23)nc(Cl)n1

### Response
["Non-toxic", "Non-toxic", "Non-toxic"]

====

Would you kindly list selectivity ratio for each of these molecules?
- protocol-summary: Selectivity index, ratio of IC50 for african green monkey Vero cells to IC50 for chloroquine-resistant Plasmodium falciparum W2
- Type: toxicity, cell-based
- study-conditions: read-out: Ratio IC50

Cc1cc(NCCCNc2ccnc3cc(Cl)ccc23)nc(Cl)n1 | > 85
Cc1cc(NCCNc2ccnc3cc(Cl)ccc23)nc(N2CCOCC2)n1 | > 444
Cc1cc(NCCCCCCNc2ccnc3cc(Cl)ccc23)nc(N2CCCCC2)n1 | 88
CCN1CCN(c2nc(C)cc(NCCCNc3ccnc4cc(Cl)ccc34)n2)CC1 | > 1000
Cc1cc(NCCCCCCNc2ccnc3cc(Cl)ccc23)nc(N2CCN(C)CC2)n1 | 650

Would you mind giving selectivity ratio for every molecule in the list below?
1. Cc1cc(Cl)nc(NCCCNc2ccnc3cc(Cl)ccc23)n1
2. Cc1cc(NCCCCNc2ccnc3cc(Cl)ccc23)nc(N2CCCCC2)n1

### Response
> 51.3
> 666

Would you mind giving selectivity ratio for every molecule in the list below?
1. Cc1cc(Cl)nc(NCCNc2ccnc3cc(Cl)ccc23)n1
2. Cc1cc(NCCCNc2ccnc3cc(Cl)ccc23)nc(N2CCOCC2)n1
3. Cc1cc(NCCCCCCNc2ccnc3cc(Cl)ccc23)nc(N2CCOCC2)n1
4. Cc1cc(NCCCCNc2ccnc3cc(Cl)ccc23)nc(N2CCN(C)CC2)n1
5. Cc1cc(NCCCNc2ccnc3cc(Cl)ccc23)nc(N2CCCCC2)n1
6. Cc1cc(NCCCNc2ccnc3cc(Cl)ccc23)nc(N2CCN(C)CC2)n1
7. Cc1cc(NCCNc2ccnc3cc(Cl)ccc23)nc(N2CCN(C)CC2)n1

### Response
53.1
> 1200
107
> 3000
> 285
> 1000
> 2000

====

- System: Vero
- protocol-summary: Cytotoxicity against african green monkey Vero cells up to 60 uM after 48 hrs by neutral red assay
- Format: cell-based
- study-conditions: chlorocebus sabaeus
assay-readout: Activity

As a guide, the following entries are already answered.
Cc1cc(NCCNc2ccnc3cc(Cl)ccc23)nc(N2CCN(C)CC2)n1 | Non-toxic
CCN(CC)CCCC(C)Nc1ccnc2cc(Cl)ccc12 (stereo not given) | Non-toxic
Cc1cc(NCCNc2ccnc3cc(Cl)ccc23)nc(N2CCOCC2)n1 | Non-toxic
Cc1cc(NCCCNc2ccnc3cc(Cl)ccc23)nc(N2CCCCC2)n1 | Non-toxic
Cc1cc(NCCCNc2ccnc3cc(Cl)ccc23)nc(N2CCOCC2)n1 | Non-toxic
CCN1CCN(c2nc(C)cc(NCCCNc3ccnc4cc(Cl)ccc34)n2)CC1 | Non-toxic
Cc1cc(Cl)nc(NCCCNc2ccnc3cc(Cl)ccc23)n1 | Non-toxic
C[C@@H]1CC[C@H]2[C@@H](C)C(=O)O[C@@H]3O[C@@]4(C)CC[C@@H]1[C@]32OO4 | Non-toxic
Cc1cc(NCCCCNc2ccnc3cc(Cl)ccc23)nc(N2CCN(C)CC2)n1 | Non-toxic
Cc1cc(NCCNc2ccnc3cc(Cl)ccc23)nc(Cl)n1 | Non-toxic

Would you mind giving Activity for every molecule in the list below?
1. Cc1cc(NCCCNc2ccnc3cc(Cl)ccc23)nc(Cl)n1
2. Cc1cc(NCCCCNc2ccnc3cc(Cl)ccc23)nc(N2CCCCC2)n1
3. Cc1cc(NCCCCNc2ccnc3cc(Cl)ccc23)nc(Cl)n1
4. Cc1cc(Cl)nc(NCCCCNc2ccnc3cc(Cl)ccc23)n1

### Response
Non-toxic
Non-toxic
Non-toxic
Non-toxic

### Prompt Need Activity, item Cc1cc(NCCCNc2ccnc3cc(Cl)ccc23)nc(N2CCN(C)CC2)n1
### Response Non-toxic
